Assign IC50 to each entry below.
Molecular target: human JAK1 catalytic kinase (JH1) domain (Homo sapiens (Human))
Sequence (P23458 875-1153): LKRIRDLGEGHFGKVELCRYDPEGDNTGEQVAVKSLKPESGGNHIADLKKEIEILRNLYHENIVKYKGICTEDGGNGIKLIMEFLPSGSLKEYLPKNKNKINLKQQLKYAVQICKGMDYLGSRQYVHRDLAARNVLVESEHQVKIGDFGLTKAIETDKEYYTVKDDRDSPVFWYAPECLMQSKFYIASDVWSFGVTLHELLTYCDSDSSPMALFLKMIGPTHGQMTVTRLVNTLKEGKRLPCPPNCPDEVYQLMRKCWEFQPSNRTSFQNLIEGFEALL
Experiment: ADP-Glo Kinase Assay, recombinant JAK1 catalytic kinase (JH1) domain
Assay type: biochemical
Details: recombinant JH1 domain 4 nM, 35 μM ATP, JAK3-342 peptide, mean, read-out: JAK1 biochem IC50 (nM) Mean

[ask] Find the recorded IC50 belonging to Cn1cc(-c2cc3c(N4CC5CCC(C4)N5C(=O)C4(F)CC4)ncnn3c2)cn1 and report it.
[reply] 1150 nM

[ask] Find the recorded IC50 belonging to O=C([C@@H]1C[C@H]1F)N1C2CCC1CN(c1ncnn3cc(-c4ccnc(C(F)F)c4)cc13)C2 and report it.
[reply] 386 nM

[ask] Find the recorded IC50 belonging to O=C([C@@H]1CC1(F)F)N1C2CCC1CN(c1ncnn3cc(-c4cnn(C(F)F)c4)cc13)C2 and report it.
[reply] 653 nM

[ask] Find the recorded IC50 belonging to O=C(C1CC1)N1C2CCC1CN(c1ncnn3cc(-c4cnn([C@@H]5CCOC5)c4)cc13)C2 and report it.
[reply] 1500 nM

Data provenance: patent US20240360157A1
